Values from ChEMBL document CHEMBL5365427

pIC50: −log10 of the molar value.
Measured pIC50 on Tyrosine-protein kinase SYK (Homo sapiens) follows.
measurementKind: pIC50

>>> print(df.to_string())
                               recordsmiles  measurementkind  cmp  value
0  C=CC(=O)Nc1cc(CNc2nc(Nc3ccc(N4CCC(O)CC4)c(OC)c3)c(C(N)=O)c3nccn23)ccc1Cl            pIC50    =   5.89
1  C=CC(=O)Nc1cc(CNc2nc(Nc3ccc(N4CCN(C5COC5)CC4)c(OC)c3)c(C(N)=O)c3nccn23)ccc1Cl            pIC50    =   6.22
2  C=CC(=O)Nc1cc(CNc2nc(Nc3cc(OC)cc(OC)c3)c(C(N)=O)c3nccn23)ccc1F            pIC50    <   5.00

====

Catalogue of compounds with associated inhibition
# target: Tyrosine-protein kinase SYK (Homo sapiens, UniProt P43405)
# protocol: Inhibition of SYK (unknown origin) using ULight-TK peptide as substrate at 1 uM incubated for 120 mins in presence of ATP by Lance Ultra Kinase assay relative to control
measurementKind: inhibition (%)

                               recordsmiles  value
0  C=CC(=O)Nc1cc(CNc2nc(Nc3ccc(N4CCOCC4)c(CO)c3)c(C(N)=O)c3nccn23)ccc1Cl   40.2
1  C=CC(=O)Nc1cc(CNc2nc(Nc3ccc(N4CCOCC4)c(OCC)c3)c(C(N)=O)c3nccn23)ccc1Cl     82
2  C=CC(=O)Nc1cccc(CNc2nc(Nc3cc(OC)cc(OC)c3)c(C(N)=O)c3nccn23)c1F   44.7
3  C=CC(=O)Nc1cc(CNc2nc(Nc3ccc(N4CCOCC4)c(OC(C)C)c3)c(C(N)=O)c3nccn23)ccc1Cl   27.6

====

inhibition overview
# target: Tyrosine-protein kinase SYK (Homo sapiens)
# protocol: Inhibition of SYK (unknown origin) using ULight-TK peptide as substrate at 1 uM incubated for 120 mins in presence of ATP by Lance Ultra Kinase assay relative to control
measurementKind: inhibition (%)

>>> print(df.to_string())
                               recordsmiles  value
0  C=CC(=O)Nc1cc(CNc2nc(Nc3cc(OC)cc(OC)c3)c(C(N)=O)c3nccn23)ccc1F   19.8
1  C=CC(=O)Nc1cc(CNc2nc(Nc3ccc(N4CCN(C5COC5)CC4)c(OC)c3)c(C(N)=O)c3nccn23)ccc1Cl   87.5
2  C=CC(=O)Nc1cccc(CNc2nc(Nc3cc(OC)cc(OC)c3)c(C(N)=O)c3nccn23)c1Cl   13.2
3  C=CC(=O)Nc1cc(CNc2nc(Nc3ccc(N4CCOCC4)cc3)c(C(N)=O)c3nccn23)ccc1Cl   61.4
4  C=CC(=O)Nc1cccc(CN(C)c2nc(Nc3cc(OC)cc(OC)c3)c(C(N)=O)c3nccn23)c1   -5.9
5  C=CC(=O)Nc1cc(CNc2nc(Nc3ccc(N4CCOCC4)cc3OC)c(C(N)=O)c3nccn23)ccc1Cl    3.2
6  C=CC(=O)Nc1ccc(F)c(CNc2nc(Nc3cc(OC)cc(OC)c3)c(C(N)=O)c3nccn23)c1    6.2
7  C=CC(=O)Nc1cc(CNc2nc(Nc3ccc(N4CCCN(C)CC4)c(OC)c3)c(C(N)=O)c3nccn23)ccc1Cl   71.2
